# assay-system: Glutaminyl cyclase (QC) (Homo sapiens (Human))
# Sequence (Q16769 29-361): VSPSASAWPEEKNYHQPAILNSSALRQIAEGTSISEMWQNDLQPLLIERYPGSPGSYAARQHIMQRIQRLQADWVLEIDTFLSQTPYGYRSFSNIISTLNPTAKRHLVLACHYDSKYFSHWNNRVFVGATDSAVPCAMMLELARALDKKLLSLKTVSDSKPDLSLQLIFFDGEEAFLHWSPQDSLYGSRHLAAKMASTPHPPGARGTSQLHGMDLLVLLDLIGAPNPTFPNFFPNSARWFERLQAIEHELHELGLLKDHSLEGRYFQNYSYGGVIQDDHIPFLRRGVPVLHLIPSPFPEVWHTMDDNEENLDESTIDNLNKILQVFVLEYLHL
# assay-procedure: Glutaminyl cyclase assay, determination of IC50 values and calculation of Ki values (H-Gln-AMC substrate, pGAP auxiliary enzyme; pH 8.0 or pH 6.0)
# Assay type: biochemical
# study-conditions: pH 8, read-out: hQC Ki [μM] pH8
experimental-readout: Ki (µM)
One number for each entry, in µM.

Here are 3 compounds together with their reported answers.
compound	reported-result
CC(C)Oc1ccc(-c2ccccc2Nc2ccc(-c3nnc(N)s3)cc2)cc1 [C12]	3.27
COc1ccc(-c2cnccc2NCc2ccc3[nH]cnc3c2)cc1OC [O10]	0.88
COc1ccc(-c2ccccc2Nc2ccc(-c3nncn3C)cc2)cc1 [D3]	1.69

# batch size: 6; output Ki per entry
1. COc1ccc(-c2nccnc2NCc2ccc3[nH]cnc3c2)cc1OC [O12]
2. COc1ccc(-c2c(C)cccc2NCc2ccc3[nH]cnc3c2)cc1OC [O21]
3. COc1ccc(-c2ccncc2NCc2ccc3[nH]cnc3c2)cc1 [O7]
4. CCCOc1ccc(-c2ccccc2Nc2ccc(-c3nnc(N)s3)cc2)cc1 [C11]
5. COc1ccc(-c2cccnc2Nc2ccc(-c3nnc(N)s3)cc2)cc1 [C5]
6. Fc1ccc(-c2ncccc2NCc2ccc3[nH]cnc3c2)cc1 [Comp 1252]

OUT:
1: 0.42; 2: 0.42; 3: 4.24; 4: 2.36; 5: 4.7; 6: 22
